experiment: AUC (0 to infinity) in dog plasma at 3 mg/kg, po; assay type: ADME, organism-based, Canis lupus familiaris; set-up: dose 3 mg/kg, route oral, time infinity
Parameter Measured: AUC(0-inf) (ng·h/mL)
Answers are plain numbers, in ng·h/mL.

Tell me the measured AUC(0-inf) of Cc1ccc(-n2nc(C(=O)N3C[C@@H](C)N[C@@H](C)C3)nc2-c2ccc3c(c2)N(C2CCCC2)[C@H](C)C(=O)N3C)cc1 , please.
798

---

target: Bromodomain-containing protein 4 (Homo sapiens); experiment: Binding affinity to His6-tagged human BRD4 bromodomain 1 expressed in Escherichia coli BL21(DE3) )-codon plus-RIL cells by isothermal titration calorimetric method
Parameter Measured: Kd (µM)
One number for each entry, in µM.

State its Kd on Bromodomain-containing protein 4 (Homo sapiens): Cc1ccc(-n2nc(C(=O)N3C[C@@H](C)N[C@@H](C)C3)nc2-c2ccc3c(c2)N(C2CCCC2)[C@H](C)C(=O)N3C)cc1
0.0152

---

biological target: CYP2C9 (Homo sapiens, UniProt P11712); assay: Reversible inhibition of CYP2C9 in human liver microsomes at 10 uM using diclofenac as substrate preincubated for 5 mins followed by NADPH generating system addition and measured after 20 mins relative to control; assay type: ADME; details: probe diclofenac
Sequence (P11712 whole entry): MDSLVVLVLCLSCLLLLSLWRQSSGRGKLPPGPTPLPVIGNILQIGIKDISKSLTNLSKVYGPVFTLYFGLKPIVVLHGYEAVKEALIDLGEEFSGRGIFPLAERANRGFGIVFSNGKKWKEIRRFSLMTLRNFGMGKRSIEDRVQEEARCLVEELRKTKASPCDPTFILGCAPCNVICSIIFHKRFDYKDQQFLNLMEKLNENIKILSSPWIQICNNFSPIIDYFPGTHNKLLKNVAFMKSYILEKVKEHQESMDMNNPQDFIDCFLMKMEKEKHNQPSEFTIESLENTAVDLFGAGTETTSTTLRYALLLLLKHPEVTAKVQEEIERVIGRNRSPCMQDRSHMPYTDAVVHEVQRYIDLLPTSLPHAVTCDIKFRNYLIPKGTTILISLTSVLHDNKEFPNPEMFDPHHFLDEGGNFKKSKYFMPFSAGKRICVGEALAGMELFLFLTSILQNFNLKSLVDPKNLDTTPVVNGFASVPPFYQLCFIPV
Parameter Measured: inhibition at 20 min, 10 µM

Check out these entries, answers already filled in.
• Cc1ccc(-n2nc(C(=O)N3CCN(C)CC3)nc2-c2ccc3c(c2)N(C2CCCC2)[C@H](C)C(=O)N3C)cc1 = 30%
• Cc1ccc(-n2c(C)nnc2-c2ccc3c(c2)N(C2CC2)C(C)C(=O)N3C)cc1 (centres undefined) = 10%
• Cc1ccc(-n2c(C)nnc2-c2ccc3c(c2)N(C2CCCC2)[C@H](C)C(=O)N3C)cc1 = > 50%

Lab note: next molecule to report on.
Tell me the measured inhibition at 20 min, 10 µM of Cc1ccc(-n2nc(C(=O)N3CCN(C)CC3)nc2-c2ccc3c(c2)N(C2CC2)C(C)C(=O)N3C)cc1 (centres undefined) , please.
6%

---

test: Cmax in ICR mouse at 10 mg/kg, po administered via gavage measured after 0.25 to 24 hrs by UPLC/MS analysis; assay type: ADME, organism-based; parameters: dose 10 mg/kg, route oral; settings: in vivo
Could you label it Fulfilled if measured Cmax is 1 µg/mL or higher, and Not fulfilled otherwise?

Recorded results for 3 compounds are shown here.
- Cc1ccc(-n2nc(C(=O)N3CCN(C)CC3)nc2-c2ccc3c(c2)N(C2CCCC2)[C@H](C)C(=O)N3C)cc1F: Fulfilled
- Cc1ccc(-n2nc(C(=O)N3CCN(C)CC3)nc2-c2ccc3c(c2)N(C2CC2)C(C)C(=O)N3C)cc1 (stereo not given): Fulfilled
- Cc1ccc(-n2nc(C(=O)N3CCN(C)CC3)nc2-c2ccc3c(c2)N(C2CCCC2)[C@H](C)C(=O)N3C)cc1: Fulfilled

Can Cc1ccc(-n2nc(C(=O)N3C[C@@H](C)N[C@@H](C)C3)nc2-c2ccc3c(c2)N(C2CCCC2)[C@H](C)C(=O)N3C)cc1 be said to have Cmax at or above 1 µg/mL?
Fulfilled

Follow-up entry: Cc1ccc(-n2cnnc2-c2ccc3c(c2)N(C2CC2)C(C)C(=O)N3C)cc1 (stereo not given)
Not fulfilled

---

molecular target: Cytochrome P450 2C9 (Homo sapiens, UniProt P11712); assay: Time-dependent inhibition of CYP2C9 in human liver microsomes at 10 uM using diclofenac as substrate preincubated up to 30 mins followed by NADPH generating system addition and measured after 10 mins; assay type: ADME
Sequence (P11712 whole entry): as above
Parameter Measured: TDI

- Cc1ccc(-n2nc(C(=O)N3CCN(C)CC3)nc2-c2ccc3c(c2)N(C2CC2)C(C)C(=O)N3C)cc1 (stereo unspecified): 19 ×10⁻⁴ /min
- Cc1ccc(-n2nc(C(=O)N3C[C@@H](C)N[C@@H](C)C3)nc2-c2ccc3c(c2)N(C2CCCC2)[C@H](C)C(=O)N3C)cc1: Not Active
- Cc1ccc(-n2nc(C(=O)N3CCN(C)CC3)nc2-c2ccc3c(c2)N(C2CCCC2)[C@H](C)C(=O)N3C)cc1: 74 ×10⁻⁴ /min
- Cc1ccc(-n2c(C)nnc2-c2ccc3c(c2)N(C2CCCC2)[C@H](C)C(=O)N3C)cc1: Not Active
- Cc1ccc(-n2cnnc2-c2ccc3c(c2)N(C2CC2)C(C)C(=O)N3C)cc1 (stereo unspecified): Not Active

Lab note: next compound to report on.
Tell me the measured TDI of Cc1ccc(-n2c(C)nnc2-c2ccc3c(c2)N(C2CC2)C(C)C(=O)N3C)cc1 (stereo unspecified) , please.
Not Active
